System: PfAP2-I AP2 domain 3 (GST-tagged)
Assay: gcPBM binding intensity (ln(normalized median fluorescence intensity)); higher = stronger DNA binding
Over roughly 25,000 sequences, “ln(normalized median fluorescence intensity)” has its median near 7.9; the highest 2% begin near 11. This is one part of a sample in which the highest values are shown more often than they occur.
gcPBM binding intensity (ln): recorded values
Form field (numeric): enter value without unit.

Worked set:
# seq-string, assay-result
measured = [
    ("TTAACATACACTCTAGTGCATATATATAACAAAATA [GTGCAC_site9724]", 10),
    ("TATATATATTCTTTAAAACACACGTAAAGAAGAATT [CACACA_site2718]", 7.94),
]

For this sequence ( ATATTTCTGTGTGGATGTACATTATTAGCAGGCTTT [XGTACX_site6496] ), measured gcPBM binding intensity (ln) is 8.12

For this sequence ( TTACGCGCTTATTACACACACATACAAATAAGGATT [CACACA_site3486] ), measured gcPBM binding intensity (ln) is 8.06

For this sequence ( ATTATATATATGTGCACACAAAAGATATATATATAT [CACACA_site5205] ), measured gcPBM binding intensity (ln) is 10.2

For this sequence ( `ATATATATATAATAAGTGCAAAAAAAAGAAAAAAAT` ), measured gcPBM binding intensity (ln) is 10.2

For this sequence ( ATTTAAATACAAAATTGTACTTTTCTATATTTAACA [XGTACX_site6146] ), measured gcPBM binding intensity (ln) is 7.79

For this sequence ( TTTTTATATGCGTATTGTACATTATACATATATATA [XGTACX_site6786] ), measured gcPBM binding intensity (ln) is 7.97

For this sequence ( TATTTTACATCTTCTCACATTTTATCACTTTTTAAA [CACACA_negctrl_site330] ), measured gcPBM binding intensity (ln) is 8.08

For this sequence ( GGAAACCCTCCCAAATGTACTTTTATAAAAAAATAC [XGTACX_site5502] ), measured gcPBM binding intensity (ln) is 8.2

---

System: PfAP2-I AP2 domain 3 (GST-tagged)
Experiment: gcPBM binding intensity (ln(normalized median fluorescence intensity)); higher = stronger DNA binding
Whole data set: some 25,000 sequences, median “ln(normalized median fluorescence intensity)” near 7.9, cut for the highest 2% near 11. Many of the other results were omitted from the sample, so the highest values are more common in it than they were.
gcPBM binding intensity (ln): recorded values
Form field (numeric): enter value without unit.

# seq-string, gcPBM binding intensity (ln)
records = [
    ("ATTTTAATAAAATATGTACACACATACACCCATATA [CACACA_site8326]", 8.15),
    ("ATCTATATTATTTCTACACACATATCTATAATATGT [CACACA_site7561]", 7.85),
    ("TATGATTAATTACCACAATTGACAAAAAAAAAAAAA [CACACA_negctrl_site336]", 8.13),
    ("ATAAAATATCAATACCGTACACAAGCAGGTAAAATA [XGTACX_site3719]", 7.82),
    ("GTTTATCACAGCCACGCACACATAATATCTGTATAT [CACACA_site5929]", 8.18),
    ("TTACAAGTAAAAGGTACACACATTATATATACAAAT [CACACA_site8290]", 7.97),
    ("ATAATTATATGGCTAGCACACAATAAATAATTATAT [CACACA_site3815]", 7.92),
    ("TATATTTATAAATGAACACACACGCAATTTGAATCG [CACACA_site3370]", 7.89),
    ("AAAGTATATAGGATACGTACATACATAAATAAATAA [XGTACX_site8216]", 7.84),
    ("GTGTAGTAAAATCGATGTACGTACAAATCAATTATT [XGTACX_site7662]", 8.06),
]

GET /values?item= TTTTATATCTACCTTTGTACATATTTATTTTTTTTA [XGTACX_site7872] &system= PfAP2-I AP2 domain 3 (GST-tagged) returns gcPBM binding intensity (ln): 8.01

GET /values?item= TATGAATGGTTAAGTACACACATATTAATATAGGTA [CACACA_site7606] &system= PfAP2-I AP2 domain 3 (GST-tagged) returns gcPBM binding intensity (ln): 7.79

---

Tested on: PfAP2-I AP2 domain 3 (GST-tagged)
Test: gcPBM binding intensity (ln(normalized median fluorescence intensity)); higher = stronger DNA binding
Whole data set: some 25,000 sequences, median “ln(normalized median fluorescence intensity)” near 7.9, cut for the highest 2% near 11. What follows is part of a selection rich in the highest values, with near analogues and random picks from the rest.
observation-type: gcPBM binding intensity (ln)

Worked set:
# seq-string, measured-on, gcPBM binding intensity (ln)
records = [
    ("ACGTACTGCCCTAAAGTGCATATATAATATAAACGA [GTGCAC_site9911]", "PfAP2-I AP2 domain 3 (GST-tagged)", 10.1),
    ("TGTAGAAATGGGTGCACACACATATAAAATCTATAT [CACACA_site7224]", "PfAP2-I AP2 domain 3 (GST-tagged)", 10.4),
]

Continue with the sequence presented below.
GET /values?item= ACATTAAGACACATTGCACACGTGCACCCATAGAAA [CACACA_site8029] &system= PfAP2-I AP2 domain 3 (GST-tagged) returns gcPBM binding intensity (ln): 11

---

Tested on: PfAP2-I AP2 domain 3 (GST-tagged)
Experiment: gcPBM binding intensity (ln(normalized median fluorescence intensity)); higher = stronger DNA binding
Whole data set: some 25,000 sequences, median “ln(normalized median fluorescence intensity)” near 7.9, cut for the highest 2% near 11. This is one part of a sample in which the highest values are shown more often than they occur.
observation-type: gcPBM binding intensity (ln)

# seq-string, gcPBM binding intensity (ln)
rows = [
    ("ATACTTTTAATATGCACATGCAAATATGAAATATCG [TGCATGCA_site603]", 9.22),
]

GET /values?item= ATCATTTTTAATAAATGTACAAGTTTTAAAAAAAAA [XGTACX_site7340] &system= PfAP2-I AP2 domain 3 (GST-tagged) returns gcPBM binding intensity (ln): 7.7

GET /values?item= ACACATATGACAAATAGTACATAAATATATAAATAT [XGTACX_site7141] &system= PfAP2-I AP2 domain 3 (GST-tagged) returns gcPBM binding intensity (ln): 7.79

GET /values?item= AACATTTTAAATTATACACACATTTTGAATATATAT [CACACA_site3470] &system= PfAP2-I AP2 domain 3 (GST-tagged) returns gcPBM binding intensity (ln): 7.78

GET /values?item= `TCGTGGTTTTAATAAGTGCGCAATTTAAATATTTTT` &system= PfAP2-I AP2 domain 3 (GST-tagged) returns gcPBM binding intensity (ln): 9.31

GET /values?item= ATCGGTAATATTAACACACACATTTATATATATTTA [CACACA_site1084] &system= PfAP2-I AP2 domain 3 (GST-tagged) returns gcPBM binding intensity (ln): 8.02

GET /values?item= TTTATTTTAACTTGTTCACACATTTGAATAAATAAA [CACACA_site5064] &system= PfAP2-I AP2 domain 3 (GST-tagged) returns gcPBM binding intensity (ln): 7.71

GET /values?item= TACATTTCATTGTAATCATAAAAAATAAAGAAAAAA [XGTACX_negctrl_site542] &system= PfAP2-I AP2 domain 3 (GST-tagged) returns gcPBM binding intensity (ln): 7.58

GET /values?item= GAACTTTACAACCCAACACACAAAAAAGAAAAGAAA [CACACA_site1717] &system= PfAP2-I AP2 domain 3 (GST-tagged) returns gcPBM binding intensity (ln): 7.87

---

System: PfAP2-I AP2 domain 3 (GST-tagged)
Experiment: gcPBM binding intensity (ln(normalized median fluorescence intensity)); higher = stronger DNA binding
Whole data set: some 25,000 sequences, median “ln(normalized median fluorescence intensity)” near 7.9, cut for the highest 2% near 11. The sample as a whole holds a higher share of the highest values than the screen did.
Cut-off 8 on gcPBM binding intensity (ln), inclusive. At or above means y; below means n.

# seq-string, class-name
rows = [
    ("TCGTAAACTTTATGCACACACATATACATATTTCAT [CACACA_site739]", "y"),
]

**Q:** Does the reported gcPBM binding intensity (ln) for `TTTTTTTTTTTTCACGTGCACTATACATATAAGTAA` fall at or above the 8 mark?
**A:** y

**Q:** Does the reported gcPBM binding intensity (ln) for TATATTATTTATTTTTGTACATATTATGAATGAATA [XGTACX_site3971] fall at or above the 8 mark?
**A:** n

**Q:** Does the reported gcPBM binding intensity (ln) for TATGTATATATTTGTGCACACCAAAGTTTGATTTTA [CACACA_site1861] fall at or above the 8 mark?
**A:** y
